# maps each entry to its combination Emax
System: KY821 (Acute Myeloid Leukemia)
protocol_description: combination Emax (second highest fraction inhibited in the dose matrix, 72 h); higher = more inhibition; extreme values may be limits of the assay
No unit in the answer, only the number.

Example results:
1) NC1(C(=O)N[C@@H](CCO)c2ccc(Cl)cc2)CCN(c2ncnc3[nH]ccc23)CC1 [Capivasertib] + CC(C)n1c(=O)n(C)c2cnc3cc(F)c(-c4ccc(OCCCN5CCCCC5)nc4)cc3c21 [AZD1390] (first compound max 10 µM, 7x7, partner max 0.3 µM) = 0.547
2) CC1(C)CCC(CN2CCN(c3ccc(C(=O)NS(=O)(=O)c4ccc(NCC5CCOCC5)c([N+](=O)[O-])c4)c(Oc4cnc5[nH]ccc5c4)c3)CC2)=C(c2ccc(Cl)cc2)C1 [Venetoclax] + C=CCn1c(=O)c2cnc(Nc3ccc(N4CCN(C)CC4)cc3)nc2n1-c1cccc(C(C)(C)O)n1 [AZD1775] (first compound max 1 µM, partner max 1 µM) = 1

# input for lookup
*Q* # get_value(readout='combination Emax', item= CS(=O)(=O)CCNCc1ccc(-c2ccc3ncnc(Nc4ccc(OCc5cccc(F)c5)c(Cl)c4)c3c2)o1 [Lapatinib] + C[C@@H](Oc1cc(-c2cnn(C3CCNCC3)c2)cnc1N)c1c(Cl)ccc(F)c1Cl [Crizotinib] (first compound max 10 µM, 7x7, partner max 10 µM) )
*A* 0.986

Each recorded value in this set is attributed to the supplement of paper PMC11061612.
